# METHOD DESCRIPTION: chemical genetic growth profiling, strain panel (AID 1159580);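 note: tested at 20 µM; growth read once vehicle control cultures reached saturation at 30 °C; 1 = growth at the plate median or of vehicle wells; lower values mean less growth of the strain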
# TEST CONDITIONS: S. cerevisiae deletion strains, growth OD, locus YJL166W, strain qcr8
In all, about 5,500 compounds went through this assay and about 2,000 (36%) were called active. Roughly 18% stayed inconclusive and do not appear here. Cut-off read from the data, not from the text of the source: active = normalized growth mostly below about 0.91 (no sharp cut-off); inconclusive = no clear call, values can overlap the other calls; inactive = mostly above about 0.92. The list shows a part of the results.
Log the outcome using a class from active, inactive

What did this assay record as the result for COc1ccc2c(c1)OC/C(=C\c1ccc(OC)c(O)c1)C2=O ?
active

Same for O=C1CCC(N2C(=O)c3ccccc3C2=O)C(=O)N1 (configuration not stated)
inactive

# repeat for CNCCC(Oc1ccc(C(F)(F)F)cc1)c1ccccc1 (configuration not stated)
inactive

Same thing, different molecule: O=C1NCC2(CCN(CCc3ccccc3)CC2)O1
inactive

// same read-out, input: CNC(=O)O/N=C(\C)SC
inactive

Repeat for the following molecule: CC[C@@]1(O)C[C@H](O[C@H]2C[C@H](N(C)C)[C@H](O)[C@H](C)O2)c2c(cc3c(c2O)C(=O)c2c(O)ccc(O)c2C3=O)[C@H]1C(=O)OC
active

Check CCCCCCCCCCCCCc1ccco1 too.
active

Now consider CN1C2C[C@H](OC(=O)[C@H](CO)c3ccccc3)C[C@H]1[C@@H](O)C2 .
inactive

Same again, this time with C#CCN(C)Cc1ccccc1
inactive

Record: COc1ccc2c(c1)OC/C(=C/c1ccc(OC)c(OC)c1)C2=O
active

Record: O=C(O[C@@H]1Cc2c(O)cc(O)cc2O[C@@H]1c1ccc(O)c(O)c1)c1cc(O)c(O)c(O)c1
inactive

# iterate: C#CCCCCCCCCCCCc1ccco1
inactive

Continue with CN1C2CCC1CC(OC(c1ccccc1)c1ccccc1N)C2 (configuration not stated)
inactive

Same thing, different molecule: COc1ccc(C(c2ccc(OC)cc2)C(Cl)(Cl)Cl)cc1
inactive

Same thing, different molecule: CN1C2CCC1CC(OC(c1ccccc1)c1ccccc1)C2 (configuration not stated)
inactive

# repeat for Clc1ccc(C(c2ccc(Cl)cc2)C(Cl)(Cl)Cl)cc1
inactive

Subsequent entry: CN(C)CCOC(c1ccc(Cl)cc1)c1ccccn1 (configuration not stated)
inactive

Could you do the same for Cc1ccccc1C(OCCN(C)C)c1ccccc1 (configuration not stated) , please?
inactive

How about O=C(O[C@@H]1Cc2c(O)cc(O)cc2O[C@@H]1c1cc(O)c(O)c(O)c1)c1cc(O)c(O)c(O)c1 ?
active

Now this one: Clc1ccc(C(OCCN2CCCCC2)c2ccccc2)cc1 (configuration not stated)
inactive

Request: O=C(Oc1cc(O)cc2c1C[C@@H](OC(=O)c1cc(O)c(O)c(O)c1)[C@@H](c1cc(O)c(O)c(O)c1)O2)c1cc(O)c(O)c(O)c1
inactive

Try O=C(Oc1cc(OC(=O)c2ccccc2)c2c(c1)O[C@H](c1ccc(OC(=O)c3ccccc3)c(OC(=O)c3ccccc3)c1)[C@@H](OC(=O)c1ccccc1)C2)c1ccccc1 next.
inactive

----------
Give normalized growth for every item shown.
# METHOD DESCRIPTION: chemical genetic growth profiling, strain panel (AID 1159580)
# TEST CONDITIONS: S. cerevisiae deletion strains, growth OD, locus YJL134W, strain LCB3, active compounds read low
Screen size: about 5,500 compounds; about 2,000 (36%) were called active. About 18% were inconclusive and are not listed. The list shows a part of the results.
Kindly provide the number alone.

Please report the recorded normalized growth for COC(=O)CC1C2(C)CC34OC5(C)OC6(C7/C(=C(/O)C(C)C)C(=O)OC(c8ccoc8)C7(C)C(OC(=O)C(C)C)C(OC)C6(O5)C13C)C(OC)C4(OC)C2OC(C)=O (stereo not drawn) .
1.01

# iterate: CCCCCCCCC(=O)NCc1ccc(O)c(OC)c1
0.989

And for COC(=O)C[C@H]1C2(C)CC34OC5(C)O[C@@]6([C@H](OC)C(OC(=O)C(C)C)[C@]7(C)C(/C(=C(/OC)C(C)C)C(=O)O[C@H]7c7ccoc7)[C@@]6(O5)[C@H](OC)[C@@]3(OC)C2OC(C)=O)[C@]14C (stereo partly drawn) ?
1.01

----------
# METHOD DESCRIPTION: chemical genetic growth profiling, strain panel (AID 1159580);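 note: tested at 20 µM; growth read once vehicle control cultures reached saturation at 30 °C; 1 = growth at the plate median or of vehicle wells; lower values mean less growth of the strain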
# TEST CONDITIONS: S. cerevisiae deletion strains, growth OD, locus YPL106C, strain sse1
Screen size: about 5,500 compounds; about 2,000 (36%) were called active. Inconclusive results (about 18%) are left out. No stated cut-off is given here; in the data, active means normalized growth mostly below about 0.91 (no sharp cut-off); inconclusive means no clear call, values can overlap the other calls; inactive means mostly above about 0.92. The list shows a part of the results.
Please reply with one of these outcomes: active, inactive

Given O=S(=O)(O)c1cc(N=C=S)ccc1/C=C/c1ccc(N=C=S)cc1S(=O)(=O)O , state the outcome it received in this test.
inactive

Again, but for C=CCc1ccc(O)c(OC)c1
inactive

Could you do the same for COc1ccc(C(CN(C)C)C2(O)CCCCC2)cc1 (stereo not given) , please?
inactive

Can you handle CC(=O)S[C@@H]1CC2=CC(=O)CC[C@]2(C)[C@H]2CC[C@@]3(C)[C@@H](CC[C@@]34CCC(=O)O4)C12 (stereo not given in full) next?
inactive

Another: C[C@H]1COc2c(N3CCN(C)CC3)c(F)cc3c(=O)c(C(=O)O)cn1c23
inactive

Moving on to O=C(/C=C/c1ccc(O)c(O)c1)OC(Cc1ccc(O)c(O)c1)C(=O)O (stereo not given)
inactive

Then what about the molecule O=C(O)/C=C/c1ccc(O)c(O)c1 ?
inactive

Ok, now CC1CCc2cc(F)cc3c(=O)c(C(=O)O)cn1c23 (stereo not given)
inactive

Same read-out for CCN1CCCC(OC(=O)C(c2ccccc2)c2ccccc2)C1 (stereo not given) ?
inactive

Now this one: O=C(/C=C/c1ccc(O)c(O)c1)OCCc1ccccc1
inactive

Try this molecule next: CC[C@@H]1C=C/C=C/C[C@H](C)[C@@H](O)[C@](C)(O)C(=O)[C@H](C)[C@@H](O)[C@H](C)C(=O)[C@H](C)[C@@H](O)[C@H](C)/C=C/C(=O)O[C@H]2[C@@H](C)[C@@H](CC1)O[C@@]1(CC[C@@H](C)[C@@H](C[C@H](C)O)O1)[C@@H]2C
active

Then COc1ccc2c(c1)OC1(O)COc3cc(OC)c(OC)cc3C1=C2 (stereo not given) ?
inactive

Param item: COc1cc([C@@H]2c3cc4c(cc3C(OC3O[C@@H]5COC(C)O[C@H]5[C@H](O)[C@H]3O)C3COC(=O)[C@@H]32)OCO4)cc(OC)c1O (stereo not given in full)
inactive

Similarly, C=CCc1ccc(OC)cc1 ?
inactive

Moving on to COc1ccc(C(c2ccc(OC)cc2)C(Cl)(Cl)Cl)cc1
inactive

// next record COc1ccc(OC)c(C(O)CNC(=O)CN)c1 (stereo not given)
inactive

Note, next up: CCn1cc(C(=O)O)c(=O)c2cc(F)c(N3CCNC(C)C3)c(F)c21 (stereo not given)
inactive

Now the same for CC(=O)O[C@H]1C[C@@H](OC(C)=O)C(C)(C)C2CC(=O)[C@]3(C)C(CC[C@@]4(C)[C@H](C(=O)O)OC(=O)C5OC543)[C@]21C (stereo not given in full)
inactive

Okay, and CC1COc2c(N3CCN(C)CC3)c(F)cc3c(=O)c(C(=O)O)cn1c23 (stereo not given) ?
inactive

C[C@]12CCC(=O)C=C1C=CC1C2CC[C@@]2(C)C1CC[C@@]2(O)CCC(=O)O (stereo not given in full) , same question.
inactive

----------
# METHOD DESCRIPTION: chemical genetic growth profiling, strain panel (AID 1159580);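 note: tested at 20 µM; growth read once vehicle control cultures reached saturation at 30 °C; 1 = growth at the plate median or of vehicle wells; lower values mean less growth of the strain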
# TEST CONDITIONS: S. cerevisiae deletion strains, growth OD, locus YGL240W, strain doc1, active compounds read low
In all, about 5,500 compounds went through this assay and about 2,000 (36%) were called active. Another 18% or so got no clear call; they are omitted. The list shows a part of the results.
PARAMETER: normalized growth
Lab note: record just the number, no unit beside it.

What value of measured normalized growth is listed for CCN(CC)C(=O)N1CCN(C)CC1 ?
0.956

Then CCC[C@H](N[C@@H](C)C(=O)N1[C@H](C(=O)O)C[C@@H]2CCCC[C@@H]21)C(=O)OCC ?
1.03

// same read-out, input: O=C(/C=C/c1ccc(O)c(O)c1)OCCc1ccccc1
0.927

Same thing, different molecule: CC[C@@H]1C=C/C=C/C[C@H](C)[C@@H](O)[C@](C)(O)C(=O)[C@H](C)[C@@H](O)[C@H](C)C(=O)[C@H](C)[C@@H](O)[C@H](C)/C=C/C(=O)O[C@H]2[C@@H](C)[C@@H](CC1)O[C@@]1(CC[C@@H](C)[C@@H](C[C@H](C)O)O1)[C@@H]2C
1.01

Also check O=C(/C=C/c1ccc(O)c(O)c1)OC(Cc1ccc(O)c(O)c1)C(=O)O (stereo not given)
1.04

----------
# METHOD DESCRIPTION: chemical genetic growth profiling, strain panel (AID 1159580);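 note: tested at 20 µM; growth read once vehicle control cultures reached saturation at 30 °C; 1 = growth at the plate median or of vehicle wells; lower values mean less growth of the strain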
# TEST CONDITIONS: S. cerevisiae deletion strains, growth OD, locus YOR184W, strain ser1, active compounds read low
In all, about 5,500 compounds went through this assay and about 2,000 (36%) were called active. About 18% were inconclusive and are not listed. This is one part of the list.
Binary call on normalized growth with cut-off 1: strictly below means 1 (yes), and equality or higher means 0 (no).

is_below(normalized growth, 1) for COc1ccc(-c2coc3cc(OC)ccc3c2=O)cc1 ?
1 (yes)

One more compound: COC(=O)[C@@H]1OC(=O)C2OC23[C@@]1(C)CCC1[C@]2(C)C(C[C@H](O)[C@]13C)C(C)(C)[C@H](OC(C)=O)C[C@@H]2OC(C)=O (stereo partly specified)
0 (no)

Then CC1CCc2cc(F)cc3c(=O)c(C(=O)O)cn1c23 (stereo unspecified) ?
1 (yes)

// repeat for COc1ccc(-c2coc3cc(O)ccc3c2=O)c(OC)c1 and report
1 (yes)

Let us now turn to O=c1c(-c2ccc(O)cc2)coc2cc(O)ccc12
1 (yes)

For COc1ccc(-c2coc3cc(O)ccc3c2=O)cc1 then?
1 (yes)
